Biological target: UniProt Q920B6
Sequence (Q920B6 whole entry): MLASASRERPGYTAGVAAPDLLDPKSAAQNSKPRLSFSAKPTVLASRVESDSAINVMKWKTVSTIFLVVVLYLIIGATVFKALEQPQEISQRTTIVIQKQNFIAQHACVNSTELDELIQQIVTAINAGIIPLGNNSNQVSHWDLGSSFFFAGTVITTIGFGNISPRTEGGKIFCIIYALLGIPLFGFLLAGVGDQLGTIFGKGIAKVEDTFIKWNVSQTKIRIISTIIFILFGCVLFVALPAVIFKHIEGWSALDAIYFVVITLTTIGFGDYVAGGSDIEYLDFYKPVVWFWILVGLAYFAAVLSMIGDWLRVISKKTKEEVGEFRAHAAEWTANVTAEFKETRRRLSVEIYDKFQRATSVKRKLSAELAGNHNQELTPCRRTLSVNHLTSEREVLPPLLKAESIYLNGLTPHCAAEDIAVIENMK

compound: CC[N+](CC)(CC)CC [TEA, Tetraethylammonium chloride]
IC50: ~60 mM
